Test system: SK-OV-3 ovarian
ASSAY_TEXT: NCI tumour cell line growth inhibition, 48 h
PROPERTY_LABEL: TGI

Sure, the documented TGI for CC(C)(C)c1cc(C(=O)O)c(C(c2ccccc2)c2ccccc2C(=O)O)c(C(=O)O)c1 (stereo not given) is 36.9 µM

The value of TGI measured for the molecule COc1ccccc1Cn1c2c(c3cc(O)ccc31)C(=O)c1ccccc1C2=O turned out to be 10 µM

TGI reported for this molecule CN(C)CN1C(=O)/C(=N\n2c(-c3ccncc3)n[nH]c2=S)c2ccccc21 : > 100 µM

Item: Nc1ccc2c(SCC(=O)Nc3ccccc3-c3ccccc3NC(=O)CSc3c4ccccc4nc4cc(N)ccc34)c3ccccc3nc2c1 | TGI: > 100 µM

The molecule Clc1sc(Cl)c2c1[C@H](Br)C[C@@H]2Cl showed TGI equal to > 100 µM

Entry O=C(/C(=N/Nc1cn[nH]c(=O)c1Cl)c1ccccc1)c1ccccc1 , TGI reported as > 100 µM

Kindly note the recorded TGI for CN1C=C(C(N)=O)C2CC(O)[C@@](NC(=O)CS(N)(=O)=O)(C(=O)O)C2C1 (stereo not given in full) , which is 6.75 µM

Data point: Cn1c2ccccc2c2c3c(=O)[nH][nH]c(=O)c3c3c4ccccc4n(C)c3c21 ; TGI = > 100 µM

Entry Cc1cc(S(N)(=O)=O)c(S/C(=N\NS(=O)(=O)c2ccccc2)c2ccc(Cl)c(Cl)c2)cc1Cl , TGI reported as > 100 µM

// CN1C(=O)CC2(C)c3cc(C=O)ccc3N(C)C12 (stereo not given) : TGI value = > 100 µM
